The following compounds are shown together with reported LDH release cytotoxicity values.
Tested on: HepaRG
Test: LDH release cytotoxicity, % of total lysis control; higher = more cytotoxic
Conditions: 1 µM; 48 h
Please respond with the number in % and leave the unit unwritten.

O=C1OC(c2ccc(O)cc2)(c2ccc(O)cc2)c2ccccc21    -1.68
Cc1ccc(S(=O)(=O)NC(=O)NN2CCCCCC2)cc1 [Tolazamide]    -1.16

Requested field: LDH release cytotoxicity. Item: `CCCCCCc1ccc(O)cc1O`
-1.64

Requested field: LDH release cytotoxicity. Item: COP(N)(=O)SC (stereo not given)
3.67

Requested field: LDH release cytotoxicity. Item: `NC1CCCCC1`
-2.2

Requested field: LDH release cytotoxicity. Item: `CCCCCCCC=O`
-1.59

Requested field: LDH release cytotoxicity. Item: CCCCC(CC)COC(=O)c1ccc(C(=O)OCC(CC)CCCC)c(C(=O)OCC(CC)CCCC)c1 (stereo not given) [Tris(2-ethylhexyl) trimellitate]
-0.598

Requested field: LDH release cytotoxicity. Item: `Cc1ccc(-c2c(Cl)nc(C#N)n2S(=O)(=O)N(C)C)cc1`
-0.689

Requested field: LDH release cytotoxicity. Item: `O=[Si]=O`
-0.971

Requested field: LDH release cytotoxicity. Item: `Clc1nc(Cl)c(Cl)c(Cl)c1Cl`
-1.08

---

Tested on: HepaRG
Experiment: LDH release cytotoxicity, % of total lysis control; higher = more cytotoxic
Conditions: 10 µM; 48 h
QUANTITY: LDH release cytotoxicity (%)
Please respond with the number in % and leave the unit unwritten.

These solved cases illustrate the format of a correct answer.
CC(C)(C)c1ccccc1O    -0.21
O=S(=O)(O)C(F)(F)C(F)(F)C(F)(F)C(F)(F)C(F)(F)C(F)(F)C(F)(F)C(F)(F)F    -2
CC(C)(C)C(O)C(=Cc1ccc(Cl)cc1Cl)n1cncn1 (stereo not given)    -0.346
CCCCCCCCN(C)CCCCCCCC    -1.14

Pending compound:
Requested field: LDH release cytotoxicity. Item: `Nc1cccc2c(N)cccc12`
-1.12

---

The following compounds are shown together with reported LDH release cytotoxicity values.
Tested on: HepaRG
Experiment: LDH release cytotoxicity, % of total lysis control; higher = more cytotoxic
Conditions: 10 µM; 48 h
Please respond with the number in % and leave the unit unwritten.

These solved cases illustrate the format of a correct answer.
COP(=O)(OC)OC=C(Cl)Cl [Dichlorvos]    -0.149
CC(=O)Oc1ccccc1C(=O)O [Aspirin]    -0.207
CC(C)C(=O)Nc1ccc([N+](=O)[O-])c(C(F)(F)F)c1 [Flutamide]    0.0752
CC1=NC(=S)NC(=O)C1 [6-Methyl-2-thiouracil]    0.892
CCCCCCCCCCCC(=O)OC [Methyl dodecanoate]    -0.971
[O-][n+]1ccccc1S [Sodium (2-pyridylthio)-N-oxide]    -1.01
O=C(CCCN1CCC(O)(c2ccc(Cl)cc2)CC1)c1ccc(F)cc1 [Haloperidol]    -1.44
CCOP(=S)(OCC)Oc1nc(Cl)n(C(C)C)n1 [Isazofos]    -3
CC(C)CCCCCCOC(=O)C1CCCCC1C(=O)OCCCCCCC(C)C (stereo not given) [Diisononyl cyclohexane-1,2-dicarboxylate]    0.246
Clc1cccc(C(Cl)(Cl)Cl)n1 [Nitrapyrin]    -1.29

Requested field: LDH release cytotoxicity. Item: CCOC1Oc2ccc(OS(C)(=O)=O)cc2C1(C)C (stereo not given) [Ethofumesate]
-3.76

Requested field: LDH release cytotoxicity. Item: CC(C)=CCCC(C)=CC=O [3,7-Dimethyl-2,6-octadienal]
-0.825

Requested field: LDH release cytotoxicity. Item: `CCn1nc(C)c2c1C(=O)NCC(c1ccc(O)cc1)=N2`
0.546

Requested field: LDH release cytotoxicity. Item: OC(c1ccc(Cl)cc1)(c1cncnc1)c1ccccc1Cl (stereo not given) [Fenarimol]
0.969

Requested field: LDH release cytotoxicity. Item: c1ccc2occc2c1 [2,3-Benzofuran]
0.338

Requested field: LDH release cytotoxicity. Item: COC(=O)c1c(C(F)F)nc(C(F)(F)F)c(C2=NCCS2)c1CC(C)C [Thiazopyr]
-0.719

Requested field: LDH release cytotoxicity. Item: Oc1ccc2ccccc2c1N=Nc1ccccc1 [C.I. Solvent Yellow 14]
-0.446

---

Tested on: HepaRG
Assay: LDH release cytotoxicity, % of total lysis control; higher = more cytotoxic
Conditions: 0.3162278 µM; 48 h
Counter-ions that a name gives are not always drawn.
QUANTITY: LDH release cytotoxicity (%)
Please respond with the number in % and leave the unit unwritten.

CCCC1=NC(=S)NC(=O)C1    -2.72

Query the reported LDH release cytotoxicity for HepaRG; item: `CCCCCCCCCC(=O)O`
-1.69

Query the reported LDH release cytotoxicity for HepaRG; item: CC12C=CC(=O)C=C1CCC1C3CC(O)C(O)(C(=O)CO)C3(C)CC(O)C12F (stereo unspecified)
-1.39

Query the reported LDH release cytotoxicity for HepaRG; item: `Cc1cccc(N)c1N`
0.216

Query the reported LDH release cytotoxicity for HepaRG; item: CN(C)CCOC(c1ccccc1)c1ccccc1 [Diphenhydramine hydrochloride]
-0.977

Query the reported LDH release cytotoxicity for HepaRG; item: `CCOCN(C(=O)CCl)c1c(C)cccc1CC`
-0.877

Query the reported LDH release cytotoxicity for HepaRG; item: `CC(=NC#N)N(C)Cc1ccc(Cl)nc1`
-2.61

Query the reported LDH release cytotoxicity for HepaRG; item: `O=C1CCCCCN1`
-1.76

Query the reported LDH release cytotoxicity for HepaRG; item: O=S(=O)(O)C(F)(F)C(F)(F)C(F)(F)C(F)(F)C(F)(F)C(F)(F)F [Potassium perfluorohexanesulfonate]
-1.06

---

The following molecules are shown together with reported LDH release cytotoxicity values.
System: HepaRG
Experiment: LDH release cytotoxicity, % of total lysis control; higher = more cytotoxic
Conditions: 0.3162278 µM; 48 h
Please respond with the number in % and leave the unit unwritten.

Cn1c(=O)c2[nH]cnc2n(C)c1=O    -1.54

Requested field: LDH release cytotoxicity. Item: `O=[N+]([O-])c1ccc(Oc2ccc(Cl)cc2Cl)cc1`
-0.303

Requested field: LDH release cytotoxicity. Item: `Cc1ccc(-c2cc(C(F)(F)F)nn2-c2ccc(S(N)(=O)=O)cc2)cc1`
-0.88

Requested field: LDH release cytotoxicity. Item: CCOP(=S)(OCC)SCSCC [Phorate]
-2.48

Requested field: LDH release cytotoxicity. Item: `CN1CCCC1=O`
-2.9

Requested field: LDH release cytotoxicity. Item: CCCCOC(=O)c1ccccc1 [Butyl benzoate]
-2.41

Requested field: LDH release cytotoxicity. Item: CCCCCCOC(=O)c1ccccc1C(=O)OCCCCCC [Dihexyl phthalate]
-1.07

Requested field: LDH release cytotoxicity. Item: `CCCN(CCC)c1c([N+](=O)[O-])cc(C(F)(F)F)c(N)c1[N+](=O)[O-]`
-2.72

Requested field: LDH release cytotoxicity. Item: `Cc1ccc(C(C)(C)C)c(O)c1`
-3.17

Requested field: LDH release cytotoxicity. Item: `CC(C)Nc1nc(Cl)nc(NC(C)C)n1`
-0.266

---

Test system: HepaRG
Assay: LDH release cytotoxicity, % of total lysis control; higher = more cytotoxic
Conditions: 100 µM; 48 h
QUANTITY: LDH release cytotoxicity (%)
Please respond with the number in % and leave the unit unwritten.

These solved cases illustrate the format of a correct answer.
CCC(C)Nc1c([N+](=O)[O-])cc(C(C)(C)C)cc1[N+](=O)[O-] (centres undefined) [Butralin]    -1.58
CS(=O)(=O)c1ccc(C(CC2CCC(=O)C2)C(=O)Nc2cnccn2)cc1Cl (centres undefined) [Piragliatin]    -0.692
OC1CCCCC1 [Cyclohexanol]    -0.073

Requested field: LDH release cytotoxicity. Item: CC(C)(c1ccccc1)c1ccc(O)cc1 [4-Cumylphenol]
111

---

The following compounds are shown together with reported LDH release cytotoxicity values.
Test system: HepaRG
Test: LDH release cytotoxicity, % of total lysis control; higher = more cytotoxic
Conditions: 1 µM; 48 h
Please respond with the number in % and leave the unit unwritten.

Cc1cccc(N)c1N    -0.468
CC(=O)OCC=C(C)CCC=C(C)C [Geranyl acetate]    -4.04
CC(=O)OCCOCCOCCOC(C)=O [Triethylene glycol diacetate]    -1.55

Query the reported LDH release cytotoxicity for HepaRG; item: `CN(C)c1ccc(C(=O)c2ccc(N(C)C)cc2)cc1`
-2.73

Query the reported LDH release cytotoxicity for HepaRG; item: `COC=C(C(=O)OC)c1ccccc1COc1cccc(C(F)(F)F)n1`
-4.28

---

System: HepaRG
Assay: LDH release cytotoxicity, % of total lysis control; higher = more cytotoxic
Conditions: 3.16228 µM; 48 h
QUANTITY: LDH release cytotoxicity

These solved cases illustrate the format of a correct answer.
Oc1ccccc1Cl    -3.68%
CCNc1nc(Cl)nc(NC(C)(C)C#N)n1    -0.482%
CCCCOC(=O)c1ccccc1C(=O)OCCCC [Dibutyl phthalate]    4.61%
CCCCN(CC)c1c([N+](=O)[O-])cc(C(F)(F)F)cc1[N+](=O)[O-]    -2.56%

Requested field: LDH release cytotoxicity. Item: CNC(=S)S [Metam-sodium hydrate]
-0.486%

Requested field: LDH release cytotoxicity. Item: `Nc1ccc(Oc2ccc(N)cc2)cc1`
-1.77%

Requested field: LDH release cytotoxicity. Item: `O=C(O)Cn1c(=O)n(Cc2ccc(Br)cc2F)c(=O)c2ccc(Cl)cc21`
-0.109%

Requested field: LDH release cytotoxicity. Item: CCC(=O)OC1CCC2C3CCC4=CC(=O)CCC4(C)C3CCC12C (stereo not given) [Testosterone propionate]
-1.06%

Requested field: LDH release cytotoxicity. Item: CN1C(=O)N(c2ccccc2Br)Cc2cnc(Nc3ccc4c(c3)OCC(CO)O4)nc21 (stereo not given)
-0.0336%

Requested field: LDH release cytotoxicity. Item: `CON=C(C1=NOCCO1)c1ccccc1Oc1ncnc(Oc2ccccc2Cl)c1F`
-0.886%
